Test system: MERTK;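 also: KINOMEscan kinase panel screen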
Settings: concentration: 1 μM, replicates: in singlicate; n = 1
# %Inh annotations
result type: %Inh (%)

- compound: "CN(c1ccc2c(c1)nc(NCc1ccccc1)n2C)c1ccnc(Nc2ccc(CS(C)(=O)=O)cc2)n1.Cl [GW811603]"
  unit abbrev: "%"
  result value: 36
- compound: "Cc1ccc(O)cc1Nc1ccnc2cc(-c3ccc(CN4CCCCC4)o3)ccc12 [GW557777]"
  unit abbrev: "%"
  result value: 13
- compound: "c1ccc(Oc2ccc(Nc3ccnc4cc(-c5ccc(CN6CCCCC6)o5)ccc34)cc2)nc1 [GW567143]"
  unit abbrev: "%"
  result value: 50
- compound: "Cn1cc(-c2cnc(N)c3c(-c4ccc5c(c4)CCN5C(=O)Cc4ccccc4)csc23)cn1 [GSK2593074]"
  unit abbrev: "%"
  result value: 90
- compound: "CCn1c(-c2nonc2N)nc2c(-c3ccccc3)ncc(OCCCN)c21.O=C(O)C(F)(F)F.O=C(O)C(F)(F)F [GSK260205]"
  unit abbrev: "%"
  result value: 7
- compound: "COc1ccc(C2=C(Nc3cccc(O)c3)C(=O)NC2=O)cc1 [SB-390766]"
  unit abbrev: "%"
  result value: 28
- compound: "Nc1ncc(-c2ccc3nccc(-c4ccncc4)c3c2)cc1S(=O)(=O)N1CCCCC1 [GSK1693850]"
  unit abbrev: "%"
  result value: 35
- compound: "CC(=O)Nc1cn2nc(Oc3cccc(NC(=O)c4cccc(C(F)(F)F)c4)c3)ccc2n1"
  unit abbrev: "%"
  result value: 73
- compound: "CCNc1nccc(-c2c(-c3ccc(F)cc3)ncn2C2CCN(C)CC2)n1"
  unit abbrev: "%"
  result value: 25
- compound: "Cc1ccc(-c2ccc3occ(-c4ccc(S(C)=O)cc4)c3c2)nn1 (centres unmarked)"
  unit abbrev: "%"
  result value: 0
- compound: "Nc1ncc(-c2cn[nH]c2)c2scc(-c3ccc4c(c3)CCN4C(=O)Cc3ccccc3)c12 [GSK2593067]"
  unit abbrev: "%"
  result value: 73
- compound: "Cc1cccc(Nc2nc(NCCN)ncc2C(N)=O)c1 [GSK1292139]"
  unit abbrev: "%"
  result value: 3
- compound: "COc1cccc2c(-c3ccncc3)c(-c3ccc(F)cc3)nn12 [GW468513]"
  unit abbrev: "%"
  result value: 0
- compound: "O=C(Nc1n[nH]c2nc(-c3cccc(O)c3)ccc12)C1CC1 [SB-711805]"
  unit abbrev: "%"
  result value: 47
